Test system: SW480
Test Method Notes: cells
Format: cell-based
Condition Notes: Homo sapiens, SW480, 72 h, Table 2; 72 h, Cell TiterGlo, non-adherent; 20 coded; read-out: SW480 viab. IC50
pIC50: −log10 of the molar value.
# note: boundary value 5 maps to -1; pIC50 below it maps to 1

Please review the following examples before continuing.
{"columns": ["Compound", "Category Label"],
 "data": [
  ["CCN(CCCCOC(=O)c1ccc(OC)c(OC)c1)C(C)Cc1ccc(OC)cc1 (centres unmarked) [mebeverine, reference compound]", 1],
  ["Cc1ccc(S(=O)(=O)NC(=O)NN2CC3CCCC3C2)cc1 (centres unmarked) [gliclazide, reference compound]", 1]
]}

For this compound, is pIC50 lower than 5? CCC(C)(C)C(=O)O[C@H]1C[C@@H](C)C=C2C=C[C@H](C)[C@H](CC[C@@H]3C[C@@H](O)CC(=O)O3)[C@H]21 [simvastatin, reference compound]
-1

Would you kindly repeat that for CCN(CC)CCOc1ccccc1C(=O)CCc1ccccc1 [etafenone, reference compound] ?
1

Would you kindly repeat that for Clc1ccc(Nc2nnc(Cc3ccncc3)c3ccccc23)cc1 [vatalanib, reference compound] ?
1

Would you kindly repeat that for COc1ccc(Cl)cc1C(=O)NCCc1ccc(S(=O)(=O)NC(=O)NC2CCCCC2)cc1 [glibenclamide, reference compound] ?
-1

Would you kindly repeat that for Cc1nc(Nc2ncc(C(=O)Nc3c(C)cccc3Cl)s2)cc(N2CCN(CCO)CC2)n1 [dasatinib, reference compound] ?
-1

Would you kindly repeat that for CCOc1cc(CC(=O)N[C@@H](CC(C)C)c2ccccc2N2CCCCC2)ccc1C(=O)O [repaglinide, reference compound] ?
1
